# SYSTEM_NAME: dopaminergic D3 receptor (Homo sapiens, UniProt P35462)
# Sequence (P35462 whole entry): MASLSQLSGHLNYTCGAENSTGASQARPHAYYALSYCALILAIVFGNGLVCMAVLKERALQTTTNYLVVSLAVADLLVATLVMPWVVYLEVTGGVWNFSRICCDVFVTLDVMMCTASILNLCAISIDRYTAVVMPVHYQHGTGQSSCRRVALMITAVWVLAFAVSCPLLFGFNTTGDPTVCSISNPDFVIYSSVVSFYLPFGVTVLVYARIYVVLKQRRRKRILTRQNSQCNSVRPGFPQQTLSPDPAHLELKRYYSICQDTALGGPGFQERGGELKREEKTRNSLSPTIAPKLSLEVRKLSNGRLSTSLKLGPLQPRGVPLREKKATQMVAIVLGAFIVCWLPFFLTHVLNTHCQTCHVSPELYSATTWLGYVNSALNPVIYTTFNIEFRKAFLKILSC
# ASSAY_PROCEDURE: Cellular functional assay, dopaminergic D3 receptor (agonism/antagonism)
# Type: cell-based
# EXPERIMENTAL_CONTEXT: CHO; read-out: D3-antag. [%]
Classify by measured inhibition at 1 µM: Condition met if it is equal to or exceeds 70%, Condition not met if it is smaller.

Reference set (2 entries):
O=c1[nH]c2ccc(S(=O)(=O)NCCCN3CCN(c4nsc5ccccc45)CC3)cc2o1 = Condition met
O=S(=O)(NCCCCN1CCC(c2noc3cc(F)ccc23)CC1)c1ccc2ccccc2c1 = Condition met

From here, focus on the item given below.
Could you verify whether the entry O=S(=O)(NCCCCN1CCN(c2cccc3[nH]ccc23)CC1)c1cnc2ccccn12 shows inhibition at 1 µM of no less than 70%?
Condition not met

###

# SYSTEM_NAME: dopaminergic D2 receptor (Homo sapiens)
# ASSAY_PROCEDURE: Cellular functional assay, dopaminergic D2 receptor (agonism/antagonism)
# Type: cell-based
# EXPERIMENTAL_CONTEXT: HEK293; read-out: D2-antag. [%]
# Sequence (P14416 whole entry): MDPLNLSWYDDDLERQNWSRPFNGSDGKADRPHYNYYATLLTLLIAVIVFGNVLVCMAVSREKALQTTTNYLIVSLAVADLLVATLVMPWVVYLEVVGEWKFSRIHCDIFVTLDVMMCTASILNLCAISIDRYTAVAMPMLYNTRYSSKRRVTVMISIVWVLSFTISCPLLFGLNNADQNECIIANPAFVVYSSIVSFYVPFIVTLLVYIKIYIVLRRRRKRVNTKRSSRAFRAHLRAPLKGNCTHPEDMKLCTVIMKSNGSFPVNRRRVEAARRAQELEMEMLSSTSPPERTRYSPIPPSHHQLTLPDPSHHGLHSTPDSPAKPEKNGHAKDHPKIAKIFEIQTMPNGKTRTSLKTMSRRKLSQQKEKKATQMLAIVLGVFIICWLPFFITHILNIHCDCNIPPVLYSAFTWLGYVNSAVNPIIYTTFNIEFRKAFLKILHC
REPORTED_PROPERTY: inhibition at 1 µM (%)
Report only the number, with the unit % understood.

Worked cases, answers included:
Cc1[nH]c2ccc(Cl)cc2c1C1=CCN(CCNS(=O)(=O)c2cccc(Cl)c2)CC1 = 53
O=S(=O)(NCCCCN1CCN(c2cccc3[nH]ccc23)CC1)c1cc2ccc(Cl)cc2s1 = 94
O=S(=O)(NCCCCN1CCN(c2noc3ccccc23)CC1)c1ccc2cc(Cl)ccc2c1 = 77

Please look at this molecule and report its inhibition at 1 µM: Cc1cccc(S(=O)(=O)NCCCCN2CCN(c3noc4ccccc34)CC2)c1
88

Please look at this molecule and report its inhibition at 1 µM: O=S(=O)(NCCCCN1CCC(c2noc3cc(F)ccc23)CC1)c1ccc2cc(Cl)ccc2c1
95

Please look at this molecule and report its inhibition at 1 µM: O=S(=O)(NCCCCN1CCN(c2cccc3[nH]ccc23)CC1)c1ccccc1
100

Please look at this molecule and report its inhibition at 1 µM: O=S(=O)(NCCCN1CCC(c2noc3cc(F)ccc23)CC1)c1ccc2cn[nH]c2c1
88

Please look at this molecule and report its inhibition at 1 µM: O=S(=O)(NCCCCN1CCN(c2nsc3ccccc23)CC1)c1csc2ccccc12
83

Please look at this molecule and report its inhibition at 1 µM: O=S(=O)(NCCCCN1CCN(c2nsc3ccccc23)CC1)c1cc2ccccc2s1
84

Please look at this molecule and report its inhibition at 1 µM: O=S(=O)(NCCCCN1CCN(c2noc3ccccc23)CC1)c1cccc2ccccc12
95

###

Known inhibition at 1 µM of a selection of molecules
# SYSTEM_NAME: histaminergic H1 receptor (Homo sapiens)
# Sequence (P35367 whole entry): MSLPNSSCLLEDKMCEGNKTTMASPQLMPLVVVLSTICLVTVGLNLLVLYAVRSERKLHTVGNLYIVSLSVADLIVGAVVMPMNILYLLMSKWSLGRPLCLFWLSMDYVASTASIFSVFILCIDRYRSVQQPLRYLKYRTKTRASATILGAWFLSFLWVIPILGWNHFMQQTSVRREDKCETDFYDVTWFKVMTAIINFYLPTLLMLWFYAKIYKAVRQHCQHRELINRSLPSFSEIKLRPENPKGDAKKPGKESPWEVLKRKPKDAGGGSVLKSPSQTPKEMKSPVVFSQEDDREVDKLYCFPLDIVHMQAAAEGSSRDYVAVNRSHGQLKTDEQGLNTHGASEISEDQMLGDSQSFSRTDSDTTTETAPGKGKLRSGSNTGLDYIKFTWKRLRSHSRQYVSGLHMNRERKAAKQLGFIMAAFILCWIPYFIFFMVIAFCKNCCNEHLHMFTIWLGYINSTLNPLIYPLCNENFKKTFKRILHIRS
# ASSAY_PROCEDURE: Binding assay H1 (h), [3H]pyrilamine, HEK-293 cells
# Set-up: expressed in transfected cells; host or cells: HEK-293 cells
# EXPERIMENTAL_CONTEXT: read-out: H1 [%]
Report only the number, with the unit % understood.

Cc1c(S(=O)(=O)NCCCCN2CCC(c3noc4cc(F)ccc34)CC2)sc2ccc(Cl)cc12 [Compound 315] = 90
O=S(=O)(NCCCCN1CCC(c2noc3cc(F)ccc23)CC1)c1ccc(Cl)s1 [Compound 308] = 92

Param request: inhibition at 1 µM | system histaminergic H1 receptor (Homo sapiens) | item O=S(=O)(NCCCCN1CCC(c2noc3cc(F)ccc23)CC1)c1ccc(Br)cc1 [Compound 298]
90

###

# SYSTEM_NAME: serotoninergic 5-HT6 receptor (Homo sapiens, UniProt P50406)
# Sequence (P50406 whole entry): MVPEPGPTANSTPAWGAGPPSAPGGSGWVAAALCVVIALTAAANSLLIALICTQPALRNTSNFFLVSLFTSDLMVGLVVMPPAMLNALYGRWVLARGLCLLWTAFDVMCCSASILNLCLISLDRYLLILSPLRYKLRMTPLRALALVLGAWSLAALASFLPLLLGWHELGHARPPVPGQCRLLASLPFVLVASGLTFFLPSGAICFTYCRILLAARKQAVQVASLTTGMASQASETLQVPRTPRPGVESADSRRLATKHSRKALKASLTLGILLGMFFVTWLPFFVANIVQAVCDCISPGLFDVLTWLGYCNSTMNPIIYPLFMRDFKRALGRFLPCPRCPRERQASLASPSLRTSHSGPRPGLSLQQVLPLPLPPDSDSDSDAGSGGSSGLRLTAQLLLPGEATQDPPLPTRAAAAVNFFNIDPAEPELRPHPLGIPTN
# ASSAY_PROCEDURE: Binding assay 5-HT6 (h), [3H]LSD, CHO cells
# Set-up: expressed in transfected cells; host or cells: CHO cells
# EXPERIMENTAL_CONTEXT: read-out: 5-HT6
Known inhibition at 1 µM of a selection of molecules
Report only the number, with the unit % understood.

O=c1[nH]c2ccc(S(=O)(=O)NCCCN3CCC(c4noc5cc(F)ccc45)CC3)cc2o1 = 58
Cc1cccc(S(=O)(=O)NCCCCN2CCN(c3noc4ccccc34)CC2)c1 = 71
O=S(=O)(NCCCCN1CCN(c2nsc3ccccc23)CC1)c1ccc2cn[nH]c2c1 = 81

Please look at this molecule and report its inhibition at 1 µM: COc1cccc(S(=O)(=O)NCCCCN2CCC(c3noc4cc(F)ccc34)CC2)c1
89

Please look at this molecule and report its inhibition at 1 µM: O=S(=O)(NCCCN1CCN(c2nsc3ccccc23)CC1)c1ccc2cn[nH]c2c1
93

Please look at this molecule and report its inhibition at 1 µM: O=S(=O)(NCCCN1CCC(c2noc3cc(F)ccc23)CC1)c1cccc(Br)c1
96

Please look at this molecule and report its inhibition at 1 µM: O=S(=O)(NCCCN1CCN(c2nsc3ccccc23)CC1)c1cccc(C(F)(F)F)c1
98

###

# SYSTEM_NAME: dopaminergic D3 receptor (Homo sapiens)
# ASSAY_PROCEDURE: Binding assay D3 (h), [3H]methyl-spiperone, CHO cells
# Parameters: expressed in transfected cells; host or cells: CHO cells
# EXPERIMENTAL_CONTEXT: read-out: D3 [%]
Known inhibition at 1 µM of a selection of molecules
Report only the number, with the unit % understood.

O=S(=O)(NCCCN1CCN(c2cccc3c2OCCO3)CC1)c1cccc(F)c1 = 85

Please look at this molecule and report its inhibition at 1 µM: O=S(=O)(NCCCCN1CCC(c2noc3cc(F)ccc23)CC1)c1ccc2c(c1)CCO2
97

Please look at this molecule and report its inhibition at 1 µM: O=S(=O)(NCCCCN1CCN(c2cccc3c2OCCO3)CC1)c1ccc(F)c(F)c1
85

Please look at this molecule and report its inhibition at 1 µM: O=S(=O)(NCCCN1CCN(c2nsc3ccccc23)CC1)c1ccc(F)c(F)c1
100

Please look at this molecule and report its inhibition at 1 µM: O=c1[nH]c2cccc(N3CCN(CCCCNS(=O)(=O)c4ccc5ccccc5c4)CC3)c2[nH]1
97

###

# SYSTEM_NAME: serotoninergic 5-HT2A receptor (Homo sapiens)
# ASSAY_PROCEDURE: Binding assay 5-HT2A (h), [3H]ketanserin, HEK-293 cells
# Design: expressed in transfected cells; host or cells: HEK-293 cells
# EXPERIMENTAL_CONTEXT: read-out: 5-HT2A
Known inhibition at 1 µM of a selection of compounds
Report only the number, with the unit % understood.

Worked cases, answers included:
O=S(=O)(NCCCCN1CCC(c2noc3cc(F)ccc23)CC1)c1cccc2ccccc12 [Compound 17] = 100
O=S(=O)(NCCCCN1CCN(c2cccc3[nH]ccc23)CC1)c1ccc(C(F)(F)F)cc1 [Compound 360] = 67
O=c1[nH]c2cccc(N3CCN(CCCNS(=O)(=O)c4cccc(F)c4)CC3)c2[nH]1 [Compound 176] = 7
O=S(=O)(NCCCCN1CCC(c2noc3cc(F)ccc23)CC1)c1cccc(Br)c1 [Compound 109] = 93

Please look at this compound and report its inhibition at 1 µM: O=c1[nH]c2cccc(N3CCN(CCCCNS(=O)(=O)c4cccc5ccccc45)CC3)c2[nH]1 [Compound 418]
36

Please look at this compound and report its inhibition at 1 µM: O=S(=O)(NCCCN1CCN(c2nsc3ccccc23)CC1)c1ccc(Cl)s1 [Compound 196]
102

Please look at this compound and report its inhibition at 1 µM: O=S(=O)(NCCCN1CCC(c2noc3cc(F)ccc23)CC1)c1ccc(C(F)(F)F)cc1 [Compound 334]
90

Please look at this compound and report its inhibition at 1 µM: O=S(=O)(NCCCN1CCC(c2noc3cc(F)ccc23)CC1)c1ccc(F)c(Cl)c1 [Compound 331]
102

Please look at this compound and report its inhibition at 1 µM: Cc1c(S(=O)(=O)NCCCCN2CCC(c3noc4cc(F)ccc34)CC2)sc2ccc(Cl)cc12 [Compound 315]
102

Please look at this compound and report its inhibition at 1 µM: Cn1ccc2ccc(S(=O)(=O)NCCCCN3CCC(c4noc5cc(F)ccc45)CC3)cc21 [Compound 311]
105

###

# SYSTEM_NAME: dopaminergic D2 receptor (Homo sapiens)
# ASSAY_PROCEDURE: Binding assay D2S (h), [3H]methyl-spiperone, HEK-293 cells
# Parameters: expressed in transfected cells; host or cells: HEK-293 cells
# EXPERIMENTAL_CONTEXT: read-out: D2 [%]
# Sequence (P14416 1-414 isoform P14416-2): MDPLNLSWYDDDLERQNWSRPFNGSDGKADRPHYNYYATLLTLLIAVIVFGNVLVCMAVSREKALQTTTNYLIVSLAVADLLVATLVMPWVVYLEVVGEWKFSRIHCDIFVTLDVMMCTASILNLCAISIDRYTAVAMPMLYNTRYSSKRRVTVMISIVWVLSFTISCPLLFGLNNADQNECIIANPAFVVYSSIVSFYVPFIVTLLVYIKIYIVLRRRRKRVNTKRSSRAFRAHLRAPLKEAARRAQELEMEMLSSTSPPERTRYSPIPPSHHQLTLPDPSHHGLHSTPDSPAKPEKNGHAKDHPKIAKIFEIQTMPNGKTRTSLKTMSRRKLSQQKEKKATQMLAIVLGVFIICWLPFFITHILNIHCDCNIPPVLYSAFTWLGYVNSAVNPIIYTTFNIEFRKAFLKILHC
Known inhibition at 1 µM of a selection of compounds
Report only the number, with the unit % understood.

Worked cases, answers included:
CC(C)(C)c1ccc(S(=O)(=O)NCCCCN2CCN(c3nsc4ccccc34)CC2)cc1 [Compound 233] = 83
N#Cc1cccc(S(=O)(=O)NCCCCN2CCN(c3noc4ccccc34)CC2)c1 [Compound 282] = 97
O=S(=O)(NCCCN1CCN(c2cccc3c2OCCO3)CC1)c1cccc(Cl)c1 [Compound 411] = 40
O=c1[nH]c2ccc(S(=O)(=O)NCCCCN3CCN(c4noc5ccccc45)CC3)cc2o1 [Compound 16] = 99

Please look at this compound and report its inhibition at 1 µM: O=S(=O)(NCCCCN1CCN(c2cccc3c2OCCO3)CC1)c1cccc(Cl)c1 [Compound 390]
61

Please look at this compound and report its inhibition at 1 µM: O=S(=O)(NCCCCN1CCN(c2nsc3ccccc23)CC1)c1cccc(F)c1 [Compound 71]
103

Please look at this compound and report its inhibition at 1 µM: O=S(=O)(NCCCCN1CCN(c2cccc3c2OCCO3)CC1)c1cc2ccc(Cl)cc2s1 [Compound 401]
84
